So I've got a bunch of compounds here, and I need their pIC50 values.
Remember, pIC50 is on a log scale: it is -log10 of the molar concentration.

Qu. Report its pIC50 with HCoV-NL63 M^pro (Human coronavirus NL63) as the test system: O=C(/C=C/c1ccccc1)N[C@@H](CC1CCCCC1)C(=O)N[C@@H](C[C@@H]1CCNC1=O)C(=O)C(=O)NCc1ccccc1 [11r]
Sequence (P0C6X5 2940-3242): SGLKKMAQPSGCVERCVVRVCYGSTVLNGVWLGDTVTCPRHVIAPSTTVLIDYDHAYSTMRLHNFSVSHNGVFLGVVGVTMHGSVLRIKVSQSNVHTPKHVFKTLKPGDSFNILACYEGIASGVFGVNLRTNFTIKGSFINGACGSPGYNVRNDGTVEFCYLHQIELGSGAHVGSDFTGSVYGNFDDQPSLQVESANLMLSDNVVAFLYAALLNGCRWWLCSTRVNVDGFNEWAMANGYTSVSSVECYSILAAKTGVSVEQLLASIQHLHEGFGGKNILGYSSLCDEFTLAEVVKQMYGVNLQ
Ans. 4.91

Qu. Give reported pIC50 for O=C(/C=C/c1ccccc1)N[C@H](C(=O)N[C@@H](C[C@@H]1CCNC1=O)C(=O)C(=O)NCc1ccccc1)C1CC1 [11q] (HCoV-NL63 M^pro (Human coronavirus NL63))
Ans. 4.94

Qu. Tell me pIC50 of C#CC[C@H](NC(=O)/C=C/c1ccccc1)C(=O)N[C@@H](C[C@@H]1CCNC1=O)C(=O)C(=O)NCc1ccccc1 [11p] when tested on HCoV-NL63 M^pro (Human coronavirus NL63).
Ans. 4.76
